Tested on: rat vas deferens
Assay: Rat vas deferens test (SP antagonist effect)
Assay type: cell-based
Details: reversal of potentiation by 10 μM SP of electrically induced contractions
Non-standard residues stand in square brackets, D forms with d. Residues, ends and D or L forms follow the SMILES beside them. Nle = CCCC[C@H](N)C(=O)O
measurement.type: IC50 (µM)
All answers are understood in µM, so give the number only.

Example entries and their recorded answers appear below.
compound	assay.system	IC50, µM
CCCC[C@H](NC(=O)[C@H](CC(C)C)NC(=O)[C@@H](Cc1ccccc1)NC(=O)[C@H](Cc1ccccc1)NC(=O)[C@@H](Cc1ccccc1)NC(=O)[C@@H]1CCCN1)C(N)=O [Example 31, HPro-DPhe-Phe-DPhe-Leu-NleNH2] (H-P[dF]F[dF]L[Nle]-NH2)	rat vas deferens	30
CSCC[C@H](NC(=O)[C@H](CC(C)C)NC(=O)[C@@H](Cc1c[nH]c2ccccc12)NC(=O)[C@H](Cc1ccccc1)NC(=O)[C@@H](Cc1c[nH]c2ccccc12)NC(=O)[C@@H]1CCCN1)C(N)=O [Example 17, HPro-DTrp-Phe-DTrp-Leu-MetNH2] (H-P[dW]F[dW]LM-NH2)	rat vas deferens	4.1

Sample CSCC[C@H](NC(=O)[C@H](CC(C)C)NC(=O)[C@@H](Cc1c[nH]c2ccccc12)NC(=O)[C@H](Cc1ccccc1)NC(=O)[C@@H](Cc1ccccc1)NC(=O)[C@@H]1CCCN1)C(N)=O [Example 12, HPro-DPhe-Phe-DTrp-Leu-MetNH2] (H-P[dF]F[dW]LM-NH2) ; IC50 observed: 13

Sample CSCC[C@H](NC(=O)[C@H](CC(C)C)NC(=O)[C@@H](Cc1ccccc1)NC(=O)[C@H](Cc1ccccc1)NC(=O)[C@@H](Cc1ccccc1)NC(=O)[C@@H]1CCCN1)C(N)=O [Example 23, HPro-DPhe-Phe-DPhe-Leu-MetNH2] (H-P[dF]F[dF]LM-NH2) ; IC50 observed: 20

###

Target: SP receptor (Rattus norvegicus, UniProt P14600)
Construct: from tissue; host or cells: rat submaxillary gland (crude tissue suspension)
Sequence (P14600 whole entry): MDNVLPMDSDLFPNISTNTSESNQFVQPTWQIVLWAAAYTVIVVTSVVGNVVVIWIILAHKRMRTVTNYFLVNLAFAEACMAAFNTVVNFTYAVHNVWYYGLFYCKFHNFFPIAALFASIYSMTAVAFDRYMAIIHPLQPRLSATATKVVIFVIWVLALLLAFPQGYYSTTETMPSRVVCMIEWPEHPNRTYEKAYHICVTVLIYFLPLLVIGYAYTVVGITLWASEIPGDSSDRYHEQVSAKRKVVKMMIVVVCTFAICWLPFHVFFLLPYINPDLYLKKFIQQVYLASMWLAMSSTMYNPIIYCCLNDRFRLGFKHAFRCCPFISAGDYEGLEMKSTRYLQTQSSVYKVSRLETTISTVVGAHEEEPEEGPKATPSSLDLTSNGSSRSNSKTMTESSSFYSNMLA
Experiment: 3H-SP binding test, rat brain tissue
Details: 30 μM test compound; rat brain tissue (Examples 35-42)
Non-standard residues stand in square brackets, D forms with d. Residues, ends and D or L forms follow the SMILES beside them. Phe(4-Cl) = N[C@@H](Cc1ccc(Cl)cc1)C(=O)O; NMeNle = CCCC[C@H](NC)C(=O)O
Measured inhibition at 30 µM values are reported for all entries that follow.
All answers are understood in %, so give the number only.

compound	measurement.type	recorded.value
CSCC[C@H](NC(=O)[C@H](CC(C)C)NC(=O)CNC(=O)[C@H](Cc1ccc(Cl)cc1)NC(=O)[C@H](Cc1ccc(Cl)cc1)NC(=O)[C@@H]1CCCN1)C(N)=O [Example 37, HPro-Pcp-Pcp-Gly-Leu-MetNH2] (H-P[Phe(4-Cl)][Phe(4-Cl)]GLM-NH2)	inhibition at 30 µM	62

In the following, a different compound is considered.
Sample CCCC[C@@H](C(N)=O)N(C)C(=O)[C@H](CC(C)C)NC(=O)[C@@H](Cc1c[nH]c2ccccc12)NC(=O)[C@H](Cc1ccccc1)NC(=O)[C@@H](Cc1c[nH]c2ccccc12)NC(=O)[C@@H]1CCCN1 [Example 42, HPro-DTrp-Phe-DTrp-Leu-MeNleNH2] (H-P[dW]F[dW]L[NMeNle]-NH2) ; inhibition at 30 µM observed: 81
